Values from patent US7166642B1

# Test system: Neurons originating from the cerebral hemisphere of rat fetus
# procedure details: Neurite-extension effect
# Format: cell-based
# stated conditions: Rattus norvegicus, Neuron, 72 h; 1×10^−8 M, cultured for three days, phase-contrast microscope
readout type: activity at 0.01 µM

Here are 6 compounds together with their reported answers.
{"compound": "CC1=C(CCCCCCCCCCCCCCO)C(C)(C)CCC1=O", "value": "> 160%"}
{"compound": "CC1CCC(=O)C=C1CCCCCCCCCCCCCCO (stereo not drawn)", "value": "> 200%"}
{"compound": "CCCCCCCCCCCC(O)CC1=CC(=O)CCC1(C)C (stereo not drawn)", "value": "> 160%"}
{"compound": "CC1=C(CCCCCCCCCCCCCCO)CCCC1=O", "value": "> 200%"}
{"compound": "CC1(C)CCC(=O)C=C1CCCCCCCCCCCCO", "value": "> 160%"}
{"compound": "CC1CCC(=O)C=C1CCCCCCCCCCCCO (stereo not drawn)", "value": "> 160%"}

Neurons originating from the cerebral hemisphere of rat fetus activity at 0.01 µM of CC1(C)CCC(=O)C=C1CCCCCCCCCCCCCCO is > 160%

Form field activity at 0.01 µM for item CCCCCCCCCCCC(O)CC1=CC(=O)CCC1C (stereo not drawn) on Neurons originating from the cerebral hemisphere of rat fetus: > 200%

Measured on Neurons originating from the cerebral hemisphere of rat fetus, CC1=C(CCCCCCCCCCCCCCCO)C(C)(C)CCC1=O has a documented activity at 0.01 µM of > 200%
